# measured_on: ACE (protease from rabbit lung) (Oryctolagus cuniculus)
# Construct: ACE (protease from rabbit lung); purchased Sigma Chemical Co., St. Louis, MO, USA; host or cells: rabbit lung (tissue-derived)
# Sequence (P12822 34-1310): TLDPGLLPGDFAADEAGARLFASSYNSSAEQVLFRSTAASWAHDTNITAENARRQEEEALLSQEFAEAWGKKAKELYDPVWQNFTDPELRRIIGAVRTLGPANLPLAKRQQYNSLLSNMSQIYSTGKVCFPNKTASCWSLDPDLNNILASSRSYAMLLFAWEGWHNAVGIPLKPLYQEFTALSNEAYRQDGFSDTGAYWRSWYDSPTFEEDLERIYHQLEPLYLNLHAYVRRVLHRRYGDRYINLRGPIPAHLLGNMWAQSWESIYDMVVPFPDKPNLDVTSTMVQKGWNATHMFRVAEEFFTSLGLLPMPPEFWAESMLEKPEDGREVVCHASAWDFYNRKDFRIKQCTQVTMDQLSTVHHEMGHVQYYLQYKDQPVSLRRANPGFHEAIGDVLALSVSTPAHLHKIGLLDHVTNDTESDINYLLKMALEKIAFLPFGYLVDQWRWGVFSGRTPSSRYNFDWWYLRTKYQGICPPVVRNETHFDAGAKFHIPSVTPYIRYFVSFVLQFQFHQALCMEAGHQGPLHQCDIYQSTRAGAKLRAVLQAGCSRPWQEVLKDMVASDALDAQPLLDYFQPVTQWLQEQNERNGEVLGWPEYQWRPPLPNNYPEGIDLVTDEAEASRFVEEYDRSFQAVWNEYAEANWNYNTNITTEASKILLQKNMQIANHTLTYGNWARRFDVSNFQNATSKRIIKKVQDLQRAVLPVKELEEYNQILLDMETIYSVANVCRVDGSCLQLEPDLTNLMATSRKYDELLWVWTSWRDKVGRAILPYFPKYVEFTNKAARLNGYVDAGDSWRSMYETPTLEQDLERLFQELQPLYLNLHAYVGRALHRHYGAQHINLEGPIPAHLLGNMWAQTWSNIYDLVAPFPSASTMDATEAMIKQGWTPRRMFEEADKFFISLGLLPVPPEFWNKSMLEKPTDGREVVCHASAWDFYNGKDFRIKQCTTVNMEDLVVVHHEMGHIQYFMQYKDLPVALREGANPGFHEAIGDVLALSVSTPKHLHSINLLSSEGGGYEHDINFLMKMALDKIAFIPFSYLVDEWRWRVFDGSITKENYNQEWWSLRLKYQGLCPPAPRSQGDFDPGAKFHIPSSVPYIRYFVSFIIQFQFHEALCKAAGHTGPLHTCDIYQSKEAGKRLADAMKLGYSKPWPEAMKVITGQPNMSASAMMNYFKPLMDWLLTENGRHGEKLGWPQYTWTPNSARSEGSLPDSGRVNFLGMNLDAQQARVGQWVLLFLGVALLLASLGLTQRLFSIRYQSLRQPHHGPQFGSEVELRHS
# measurement_protocol: ACE inhibiting activity (in vitro tests), HHL substrate, HPLC
# Assay type: biochemical
# test_settings: HEPES pH 8.3, 37°C, 30 min, printed in parentheses beside the mg/mL value, read-out: IC50 (ACE inhibition)
No end group written: not given here.
recorded_metric: IC50

# input substance: KLYMRP [Fraction P8, Lys-Leu-Tyr-Met-Arg-Pro] ; wanted: its IC50
6.42 µM
